# MEASUREMENT_TARGET: human IDO1 (Homo sapiens, UniProt P14902)
# Sequence (P14902 whole entry): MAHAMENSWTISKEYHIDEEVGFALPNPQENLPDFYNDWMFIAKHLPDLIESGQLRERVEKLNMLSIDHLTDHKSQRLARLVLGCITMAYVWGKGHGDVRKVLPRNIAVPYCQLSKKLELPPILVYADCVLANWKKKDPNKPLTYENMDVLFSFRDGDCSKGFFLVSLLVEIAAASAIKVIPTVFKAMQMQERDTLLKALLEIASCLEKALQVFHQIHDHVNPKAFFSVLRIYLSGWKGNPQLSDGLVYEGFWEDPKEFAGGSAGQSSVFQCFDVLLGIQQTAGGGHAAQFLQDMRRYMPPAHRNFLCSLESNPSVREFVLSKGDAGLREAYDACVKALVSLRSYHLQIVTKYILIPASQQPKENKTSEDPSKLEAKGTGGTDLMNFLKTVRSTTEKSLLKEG
# EXPERIMENT: Assessment of human IDO-1 inhibitory activity in HEK cells (human IDO1/HEK293 cells, Ehrlich reagent, absorbance at 490 nm)
# Assay type: cell-based
# Set-up: expressed in transfected cells
# PROTOCOL_CONDITIONS: In Vitro Potency in the HEK Human IDO-1 Cellular Assay
ENDPOINT_NAME: IC50

Example cases with answers are listed next.
Report IC50 for COCC(CC(=O)O)c1cc(F)c(N(CC(C)C)CC(C)C)c(NC(=O)Cc2ccc(Cl)cc2F)c1 (single isomer, unassigned) please. < 5 nM

Report IC50 for CCOc1ccc(NC(=O)Nc2cc(C(CC(=O)O)C3CC3)ccc2N(CC(C)C)C2CCOCC2)cc1 (single isomer, unassigned) [Example 1205 Enantiomer 2] please. < 50 nM

Report IC50 for CCC(CC(=O)O)c1cc(NC(=O)Nc2ccc(C)cc2F)c(N(CC(C)C)C2CCCCC2)cc1F (single isomer, unassigned) please. < 5 nM

Further cases:
Report IC50 for Cc1ccc(CC(=O)Nc2cc(C(CC(=O)O)C(C)C)ccc2N(C)C(C)(C)C)cc1 (single isomer, unassigned) please. > 50 nM

Report IC50 for CC(C)CN(c1ccc(C(CC(=O)O)C2CC2)cc1NC(=O)Nc1cncnc1)C1CCOCC1 (single isomer, unassigned) [Example 1207 Enantiomer 2] please. > 50 nM

Report IC50 for CCC(CC(=O)O)c1ccc(N(CC2CC2)C2CCOCC2)c(Nc2ccc(C#N)cc2)c1 (single isomer, unassigned) please. < 5 nM

Report IC50 for COCC(CC(=O)O)c1ccc(N(CC(C)C)CC(C)C)c(NC(=O)Nc2ccc(C)cc2)c1 (single isomer, unassigned) please. < 50 nM
